# Test system: BCMA-negative K562
# PROTOCOL_DESCRIPTION: In vitro cytotoxicity assay (CellTiter-Glo 2.0, 384-well), Example B2
# Format: cell-based, human
# PARTICULARS: 5-day assays, FIG. 8
MEASURED_ATTRIBUTE: activity against K562 cells

| MOLECULE | activity against K562 cells |
| --- | --- |
| ADC-50 (conjugate) VH: EVQLVESGGGLVKPGGSLRLSCAASGFTSSTAWMSWVRQAPGKGLEWVGRIKSKSDGGTTDYAAPVKGRFTISRDDSKNTLFLQMNSLKTEDTAVYYCAKGGGTYGYWGQGTTVTVSS VL: QSVLTQPASVSGSPGQSVTISCTGTSSAHGGHYYVSWYQQHPGKAPKLMIYDVSNRPSGVSNRFSGSKSGNTASLTISGLQAEDEADYYCGSYTSSGSYVFGTGTKLTVL | did not show activity |
| ADC-53 (conjugate) VH: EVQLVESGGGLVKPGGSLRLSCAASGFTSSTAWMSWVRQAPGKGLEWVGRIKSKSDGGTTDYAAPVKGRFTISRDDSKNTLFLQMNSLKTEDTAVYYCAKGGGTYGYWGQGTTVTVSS VL: QSVLTQPASVSGSPGQSVTISCTGTSSAHGGHYYVSWYQQHPGKAPKLMIYDVSNRPSGVSNRFSGSKSGNTASLTISGLQAEDEADYYCGSYTSSGSYVFGTGTKLTVL | did not show activity |
| ADC-51 (conjugate) VH: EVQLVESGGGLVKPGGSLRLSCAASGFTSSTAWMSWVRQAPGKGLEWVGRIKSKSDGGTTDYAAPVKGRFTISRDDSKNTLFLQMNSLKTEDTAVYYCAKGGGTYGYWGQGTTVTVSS VL: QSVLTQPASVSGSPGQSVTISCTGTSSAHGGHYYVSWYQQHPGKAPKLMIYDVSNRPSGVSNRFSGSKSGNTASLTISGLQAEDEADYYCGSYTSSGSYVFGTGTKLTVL | did not show activity |
| ADC-52 (conjugate) VH: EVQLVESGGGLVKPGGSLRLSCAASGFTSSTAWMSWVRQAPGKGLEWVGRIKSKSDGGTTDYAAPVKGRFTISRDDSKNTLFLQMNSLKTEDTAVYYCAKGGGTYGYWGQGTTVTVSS VL: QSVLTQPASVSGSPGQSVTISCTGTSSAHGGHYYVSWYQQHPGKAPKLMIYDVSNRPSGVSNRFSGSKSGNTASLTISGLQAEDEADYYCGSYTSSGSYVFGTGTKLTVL | did not show activity |

Fill blank: measured activity against K562 cells of the molecule BCMA-AB1-3: Compound 3 conjugated with anti-BCMA antibody clone BCA7-2C5 (AB1) (conjugate) VH: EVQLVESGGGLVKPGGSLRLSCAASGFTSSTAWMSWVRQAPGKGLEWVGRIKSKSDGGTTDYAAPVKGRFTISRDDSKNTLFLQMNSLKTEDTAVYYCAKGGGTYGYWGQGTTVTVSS VL: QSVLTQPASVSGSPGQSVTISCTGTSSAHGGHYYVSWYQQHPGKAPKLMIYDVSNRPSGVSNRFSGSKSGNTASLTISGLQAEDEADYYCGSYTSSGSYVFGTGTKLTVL is ____.
did not show activity
